Origin of values: paper PMC11684006

Target: Firefly luciferase (Fluc) (Photinus pyralis)
Construct: Fluc amplified from the Super8X TOPFlash reporter plasmid, constitutively expressed under a CMV promoter
Sequence (P08659 whole entry): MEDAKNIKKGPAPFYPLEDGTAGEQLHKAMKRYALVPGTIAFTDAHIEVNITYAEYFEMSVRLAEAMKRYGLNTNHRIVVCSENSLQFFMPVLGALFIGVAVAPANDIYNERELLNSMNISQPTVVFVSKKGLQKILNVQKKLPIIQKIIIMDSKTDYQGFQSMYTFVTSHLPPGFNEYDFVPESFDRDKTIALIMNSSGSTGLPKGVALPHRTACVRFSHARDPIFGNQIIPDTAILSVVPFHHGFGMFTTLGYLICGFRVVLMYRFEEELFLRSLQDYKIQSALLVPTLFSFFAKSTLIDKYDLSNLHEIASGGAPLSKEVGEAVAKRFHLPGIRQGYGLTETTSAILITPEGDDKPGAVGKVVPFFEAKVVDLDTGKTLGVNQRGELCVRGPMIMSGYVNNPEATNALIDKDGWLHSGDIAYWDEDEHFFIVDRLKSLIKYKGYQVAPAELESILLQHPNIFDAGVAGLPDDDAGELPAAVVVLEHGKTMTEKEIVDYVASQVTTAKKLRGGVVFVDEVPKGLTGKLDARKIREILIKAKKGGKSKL
Assay: Fluc bioluminescence in lysates of compound-treated ΔFZD1–[…] HEK293T cells expressing CMV-driven Fluc (counter assay); Rluc and Nluc unaffected
Value type: pIC50
# log scale: pIC50 equals minus log10 of the concentration in mol/L

Assign pIC50 to the following record: Cc1ccc(C(=O)Nc2ccc(SCC(=O)Nc3nc(-c4ccccc4)cs3)cc2)c(C)c1 [compound 3]
7.60
